Provenance of the data: patent US20260167721A1

SYSTEM: T1, recombinant human CD3 epsilon/gamma heterodimer (human, UniProt P07766 23-126; P09693 23-116)
T1 construct: Recombinant protein in solution (200-50 nM) in the Octet assay; also called hCD3 E/G
T1 sequence (P07766 23-126, chain 1 of 2): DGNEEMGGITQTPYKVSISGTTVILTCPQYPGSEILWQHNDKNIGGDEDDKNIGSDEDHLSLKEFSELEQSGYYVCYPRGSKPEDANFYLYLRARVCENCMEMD
T1 sequence (P09693 23-116, chain 2 of 2): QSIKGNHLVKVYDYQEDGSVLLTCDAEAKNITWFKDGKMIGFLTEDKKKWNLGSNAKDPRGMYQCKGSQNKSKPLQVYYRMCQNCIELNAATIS
EXPERIMENT NOTES: Octet BLI, mAb on FAB2G sensor, hCD3 E/G 200-50 nM; R^2 0.99
# key: entry, value: koff
The figure you give is taken to be in s⁻¹; do not add the unit.

Please review the following examples before continuing.
ABL-CD3-28 (antibody, V domains shown, Chimeric hybridoma mAb: human V, CH1, upper hinge; mouse middle hinge, CH2, CH3) VH: QVQLQQSGPGLVKPSQTLSLTCAISGDSVSSNSVAWNWIRQSPSRGLEWLGRTYYRSKWYNECAGSVKSRITINPDTSKNQFSLQLNSVTPEDTAIYYCARERKWELFLDYWGQGTLVTVSS VL: NFMLTQPHSVSESPGKTVTISCTRSSGSIASNYVQWYQQRPGSSPTTVIYEDNQRPSGVPDRFSGSIDSSSNSASLTISGLKTEDEADYYCQSFDSSNVVFGGGTKLTVL : 0.000798
ABL-CD3-10 (antibody, V domains shown, Chimeric hybridoma mAb: human V, CH1, upper hinge; mouse middle hinge, CH2, CH3) VH: QVQLQQSGPGLVKPSQTLSLTCAISGDSVSCNSVAWNWIRQSPSRGLEWLGRTYYRSKWHNEYAVSVKSRINIKPDTSKNQVSLQLKSVTPEDTAVYYCARERKWELFLDYWGQGTLVTVSS VL: NFMLTQPHSVSESPGKTVTISCTRSSGSIASNYVQWYQQRPGSSPTTMIYEDNQRPSGVPDRFSGSIDSSSNSASLTISGLKTEDEADYYCQSLDSSSVVFGGGTKLTVL : 0.00039

// next entry
Qu. Note koff for the binder shown: ABL-CD3-41 (antibody, V domains shown, Chimeric hybridoma mAb: human V, CH1, upper hinge; mouse middle hinge, CH2, CH3) VH: EVQLVESGGGLVKPGGSLRLSCAASGFTFSSYSMNWVRQAPGKGLEWVSSVNSRGSYIYYADSVKGRFTISRDNAKDSLYLQMNSLRADDTAVYYCARDRRELLLDYWGQGTLVTVSS VL: SYELTQPPSVSVSPGQTARITCSGDALPKKYAYWYQQKSGQAPVLVIYEDSKRPSGIPERFSGSSSGTMATLTISGAQVEDEADYYCYSTDSSGNHCWVFGGGTKLTVL
Ans. 0.25
